- method_summary: in vivo
- condition_context: mouse, small intestine, iv, 40 pmol, Uptake, small intestine, 0.5 h after injection; 40 pmol i.v.
- Protocol: Animal studies were planned and performed in agreement with EU Directive 2010/63/EU for animal experiments and Swedish national legislation concerning protection of laboratory animals. […] Mice were euthanized followed by dislocation of their neck at 0.5 h after injection and blood samples were collected by heart puncture. […] The organ radioactivity was measured in a gamma-counter and uptake values of organs were calculated as percentage of injected dose per gram tissue (% ID/g). […]
Where a SMILES comes first, the peptide text is derived from it. [ ]: non-standard residue; d: D form. Tyr(3-I) = N[C@@H](Cc1ccc(O)c(I)c1)C(=O)O; Sta = CC(C)C[C@H](N)[C@@H](O)CC(=O)O; AEEA = NCCOCCOCC(=O)O

# molecule, tissue uptake at 0.5 h (%ID/g)
measured = [
    ("CC(C)C[C@H](NC(=O)C[C@H](O)[C@H](CC(C)C)NC(=O)[C@H](Cc1c[nH]cn1)NC(=O)CNC(=O)[C@@H](NC(=O)[C@H](C)NC(=O)[C@H](Cc1c[nH]c2ccccc12)NC(=O)[C@H](CCC(N)=O)NC(=O)[C@@H](Cc1ccccc1)NC(=O)COCCOCCNC(=O)[C@@H](N)Cc1ccc(O)c(I)c1)C(C)C)C(N)=O [[^125I]I-Tyr-PEG2-RM26] (H-[Tyr(3-I)][AEEA][dF]QWAVGH[Sta]L-NH2)", 7.3),
    ("CC(C)C[C@H](NC(=O)C[C@H](O)[C@H](CC(C)C)NC(=O)[C@H](Cc1c[nH]cn1)NC(=O)CNC(=O)[C@@H](NC(=O)[C@H](C)NC(=O)[C@H](Cc1c[nH]c2ccccc12)NC(=O)[C@H](CCC(N)=O)NC(=O)[C@@H](Cc1ccccc1)NC(=O)COCCOCCNC(=O)CN1CCN(CC(=O)O)CCN(CC(=O)O)CCN(CC(=O)O)CC1)C(C)C)C(N)=O [[^111In]In-DOTA-PEG2-RM26, metal not drawn, reference compound]", 1.5),
]

----------
Listed here: items and their measured tissue uptake at 3 h.
- method_summary: in vivo
- condition_context: mouse, liver, iv, 40 pmol, Uptake, liver, 3 h after injection; 40 pmol i.v.
Where a SMILES comes first, the peptide text is derived from it. [ ]: non-standard residue; d: D form. Tyr(3-I) = N[C@@H](Cc1ccc(O)c(I)c1)C(=O)O; Sta = CC(C)C[C@H](N)[C@@H](O)CC(=O)O; AEEA = NCCOCCOCC(=O)O

# molecule, tissue uptake at 3 h
records = [
    ("CC(C)C[C@H](NC(=O)C[C@H](O)[C@H](CC(C)C)NC(=O)[C@H](Cc1c[nH]cn1)NC(=O)CNC(=O)[C@@H](NC(=O)[C@H](C)NC(=O)[C@H](Cc1c[nH]c2ccccc12)NC(=O)[C@H](CCC(N)=O)NC(=O)[C@@H](Cc1ccccc1)NC(=O)COCCOCCNC(=O)CN1CCN(CC(=O)O)CCN(CC(=O)O)CCN(CC(=O)O)CC1)C(C)C)C(N)=O [[^111In]In-DOTA-PEG2-RM26, metal not drawn, reference compound]", "0.2 %ID/g"),
    ("CC(C)C[C@H](NC(=O)C[C@H](O)[C@H](CC(C)C)NC(=O)[C@H](Cc1c[nH]cn1)NC(=O)CNC(=O)[C@@H](NC(=O)[C@H](C)NC(=O)[C@H](Cc1c[nH]c2ccccc12)NC(=O)[C@H](CCC(N)=O)NC(=O)[C@@H](Cc1ccccc1)NC(=O)COCCOCCNC(=O)[C@@H](N)Cc1ccc(O)c(I)c1)C(C)C)C(N)=O [[^125I]I-Tyr-PEG2-RM26] (H-[Tyr(3-I)][AEEA][dF]QWAVGH[Sta]L-NH2)", "2.6 %ID/g"),
]
